B1: Twister Ribozyme (parent)
chain: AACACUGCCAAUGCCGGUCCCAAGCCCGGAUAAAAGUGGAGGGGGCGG

- Variants of: B1
- Test Method Notes: self-cleavage, relative activity (ratio to wild type); higher = more cleavage; co-transcriptional
Quantity: self-cleavage

G24A A35C; 0.102
U12G C15U; 0.649
G7C A22U; 0.0623
A2U G41U; 0.157
A10U G38A; 1.04
C5G C19G; 0.125
A22G G36C; 0.0743
G13A; 1.05
G7U G16C; 0.0533
A11U A35U; 1.12
C20G C25U; 0.0692
G7C G13U; 0.0637
C3G G24A; 0.0502
G36U G43A; 0.102
U31G G42C; 0.699
A10U C19G; 0.367
C26G U31G; 0.348
G44C G45C; 0.54
U6G C19A; 0.0816
A22G G38U; 0.122
C26G G47A; 0.177
U18A C27G; 0.0805
A22U C25G; 0.115
A23U C26G; 0.101
C25A A33U; 0.0752
A10G C15U; 0.902
A30U A33C; 0.847
G28A A32U; 0.817
C20U A33G; 0.988
C20U G41U; 0.141
G7C A32U; 0.0629
C3G U37G; 0.478
C19G A23C; 0.0786
A11C G17A; 0.134
A10G U12A; 1.03
C21G U37C; 0.0765
C46G G48A; 1
U6G G48U; 0.308
C3G A40U; 0.113
A11U U18G; 0.0666
C3G C25A; 0.0782
C26A G36U; 0.091
C14A A33G; 0.84
A23G U31C; 0.544
U31A G44C; 0.711
C8A A34G; 0.701
C20A G44U; 0.107
C5A A11C; 0.169
C20A G42A; 0.107
G28U G29C; 0.928
A10U G17U; 0.302
A2U U6G; 0.0884
G16C G17A; 0.124
A10G G39U; 0.287
C3A G47U; 0.229
G36C G43U; 0.116
A1C C21U; 0.125
C15A G47A; 0.39
G24C A40G; 0.0575

Data credit: the RNAGym collection of RNA variant scans (doi:10.7554/elife.80360)
